Test system: P388/0 cell lines
Test: Cytotoxicity assay, Alamar Blue cell growth
Format: cell-based
Details: Mus musculus, 72 h, P388/0 cells, 3 days
ATTRIBUTE_MEASURED: IC50 (nM)

- Nc1nc2nc[nH]c2c(=S)[nH]1: 360

----------
Experiment: Solubility in water
Assay type: physicochemical
ATTRIBUTE_MEASURED: solubility

• Sc1ncnc2nc[nH]c12 [6-MP (1), 6-mercaptopurine] = < 100 µg/mL
